# tested-target: 72 kDa type IV collagenase (Homo sapiens)
# test: Inhibitory concentration against Matrix metalloprotease-2
Label Yes when Activity is strictly below 3 nM; otherwise label No.

As a guide, the following entries are already answered.
substance-smiles: COCCOc1cccc(S(=O)(=O)N2CCC(Oc3ccc(C(F)(F)F)cc3)CC2)c1C(=O)NO
assigned-label: Yes

substance-smiles: O=C(NO)c1c(S(=O)(=O)N2CCC(OCc3ccc4c(c3)OCO4)CC2)ccc2c1OCO2
assigned-label: Yes

substance-smiles: COc1ccc(S(=O)(=O)N2CCC(Oc3ccccc3)CC2)c(C(=O)NO)c1OC
assigned-label: Yes

substance-smiles: O=C(NO)c1c(S(=O)(=O)N2CCC(Oc3ccc(C(F)(F)F)cc3)CC2)ccc2c1OCCO2
assigned-label: Yes

substance-smiles: COc1ccc(OC)c(S(=O)(=O)N2CCC(Oc3ccc(C(F)(F)F)cc3)CC2)c1C(=O)NO
assigned-label: No

Item `COc1ccccc1OC1CCN(S(=O)(=O)c2ccc(OC)c(OC)c2C(=O)NO)CC1` : Activity beneath 3 nM, strictly? No

Item `COc1ccc(S(=O)(=O)N2CCC(Oc3ccc(Cl)cc3)CC2)c(C(=O)NO)c1OC` : Activity beneath 3 nM, strictly? Yes

Item `COc1ccc(S(=O)(=O)N2CCC(Oc3ccc(OC(F)(F)F)cc3)CC2)c(C(=O)NO)c1OC` : Activity beneath 3 nM, strictly? Yes
